# credit: PubChem BioAssay AID1159580

Kindly state normalized growth for each of the entries shown.
experiment: chemical genetic growth profiling, strain panel (AID 1159580);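 further: tested at 20 µM; growth read once vehicle control cultures reached saturation at 30 °C; 1 = growth at the plate median or of vehicle wells; lower values mean less growth of the strain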; conditions: S. cerevisiae deletion strains, growth OD, locus YPR135W, strain CTF4, active compounds read low
In all, about 5,500 compounds went through this assay and about 2,000 (36%) were called active. Roughly 18% stayed inconclusive and do not appear here. Some of the results follow.

Please give measured normalized growth of the following entry: Cc1[nH]n(C)c(=O)c1N=Nc1ccc(Cl)cc1 0.242 (active)

Please give measured normalized growth of the following entry: CC(C)(C)c1cc(-c2cc(C(F)(F)F)[nH]n2)c2c(c1)C(C)(C)CC2 0.881 (inactive)

Please give measured normalized growth of the following entry: Cc1ccc(=O)n(Cc2ccc(Cl)c(Cl)c2)n1 0.918 (inactive)

Please give measured normalized growth of the following entry: CNS(=O)(=O)c1cc(Br)ccc1S(=O)c1ccccc1C(=O)O (centres undefined) 1.15 (inactive)

Please give measured normalized growth of the following entry: C1CCN(CCC2CCCCN2)CC1 (centres undefined) 1.08 (inactive)

Please give measured normalized growth of the following entry: Cn1c(=O)c(-c2ccccc2)c(O)c2ccccc21 0.442 (active)

Please give measured normalized growth of the following entry: Cc1cccc(C(=O)c2ccccc2C(=O)O)c1 1.02 (inactive)

Please give measured normalized growth of the following entry: CC(C)S(=O)(=O)c1csc(C(N)=O)c1Cl 1.07 (inactive)

Please give measured normalized growth of the following entry: COc1cccc(NC(=O)NC2Cc3ccccc3C2)c1 0.877 (inactive)

Please give measured normalized growth of the following entry: CC1=NN(c2cccc(S(N)(=O)=O)c2)C(=O)C1 1.08 (inactive)

Please give measured normalized growth of the following entry: O=C1CC2(CCCC2)C(=O)N1CCNc1nccc(C(F)(F)F)n1 0.941 (inactive)

Please give measured normalized growth of the following entry: COc1cccc(C(=O)N/N=C(/C)c2ccccc2O)c1 0.592 (active)

Please give measured normalized growth of the following entry: Cc1nn(-c2ccccc2)nc1C(=O)NNC(=S)Nc1ccc(Cl)cc1 0.969 (inactive)

Please give measured normalized growth of the following entry: N#C/C(=C\N(CCS(=O)(=O)c1ccc(Cl)cc1)Cc1cccs1)S(=O)(=O)c1ccc(Cl)cc1 1.19 (inactive)

Please give measured normalized growth of the following entry: COC(=O)c1scc(S(=O)(=O)C(C)C)c1N/N=C(/C#N)C(=O)c1ccccc1 0.928 (inactive)

Please give measured normalized growth of the following entry: CN(C(=O)Nc1ccccc1)n1cnc2ccccc2c1=O 1 (inactive)

Please give measured normalized growth of the following entry: COc1cc(/C=N\NC(=S)NC2CC3CCC2C3)cc(OC)c1OC (centres undefined) 0.843 (inactive)

Please give measured normalized growth of the following entry: CC(=O)c1cc2ccccc2oc1=O 0.984 (inactive)

Please give measured normalized growth of the following entry: COc1cc2nc(-c3cccs3)oc(=O)c2cc1OC 0.879 (inactive)

Please give measured normalized growth of the following entry: CC(=O)c1cc2cc(Br)ccc2oc1=O 0.717 (inactive)

Please give measured normalized growth of the following entry: COc1cc(C=Nc2ccc(F)cc2)cc(OC)c1OC 1.11 (inactive)

Please give measured normalized growth of the following entry: Cc1ccc(-c2nn(-c3ccccc3)c(=O)c3ccccc23)cc1C 0.612 (active)

Please give measured normalized growth of the following entry: CSc1nc(N)nc(N2CCCCC2)n1 0.946 (inactive)

Please give measured normalized growth of the following entry: COC(=O)c1ccccc1CSc1nccc(C(F)(F)F)n1 0.657 (inactive)
